Listing: pIC50 of selected molecules
System: Nalm-6 (B-lineage ALL)
assay-procedure: MTT cytotoxicity assay, Nalm-6
Assay type: cell-based
condition: Homo sapiens, 24-36 hours at 37° C., 0.1 to 250 μM
Residues, ends and D or L forms follow the SMILES beside them. *: point of attachment. Farnesyl = CC(C)=CCC/C(C)=C/CC/C(C)=C/C*; Boc = CC(C)(C)OC(=O)*; CH2Cl = ClC*
By convention, pIC50 is the negative base-10 log of a molar concentration.

Completed entries (count: 3):
pIC50 of CC(=O)N[C@@H](CSCC=C(C)C)C(=O)CCl on Nalm-6 (B-lineage ALL)?
4.90

pIC50 of CC(C)=CCC/C(C)=C/CC/C(C)=C/CSC[C@H](NC(=O)CNC(=O)OC(C)(C)C)C(=O)CCl [HI-130] (Boc-Gly-Cys(Farnesyl)-CH2Cl) on Nalm-6 (B-lineage ALL)?
4.89

pIC50 of CC(C)=CCC/C(C)=C/CC/C(C)=C/CSC[C@H](NC(=O)OC(C)(C)C)C(=O)CCl on Nalm-6 (B-lineage ALL)?
4.97

API: the following record is the query input.
pIC50 of CCCCCCCCCCCCSC[C@H](NC(=O)OCc1ccccc1)C(=O)CCl on Nalm-6 (B-lineage ALL)?
4.87

// data source = patent US6251882A
